# Test system: Ba/F3-PDGFRα-D842V
# EXPERIMENT SUMMARY: Relative IC50 in PDGFR-expressing cell line
# Assay type: cell-based, murine
# STUDY CONDITIONS: Mus musculus, 48 h, 2 day experiment, read-out: Relative IC50 range
READOUT LABEL: pIC50
Give bare numbers, as −log10 of the molar value.

Incoming: Tell me measured pIC50 for CCN1CCN(Cc2ccc(NC(=O)c3cccc(-c4ccc5nc(NC(=O)C6CC6)sc5n4)c3)cc2C(F)(F)F)CC1 [Compound 2] please.
Outgoing: 6.00

###

# MEASURED ON: ABL1(T315I) (Homo sapiens (Human), UniProt P00519, T315I)
# EXPERIMENT SUMMARY: KINOMEscan competition binding assay
READOUT LABEL: Kd (nM)
Answers are plain numbers, in nM.

Incoming: Tell me measured Kd for CCN1CCN(Cc2ccc(NC(=O)c3cccc(-c4ccc5nc(NC(=O)C6CC6)sc5n4)c3)cc2C(F)(F)F)CC1 [Compound 2] please.
Outgoing: 1.2
